tested on: Escherichia coli TOP10; assay: shrunken log2 fold change of peptide-encoding DNA abundance (4.5 h post-induction vs induction); higher = less antimicrobial activity (less host growth inhibition); settings: time post-induction: 4.5 h; library: site-saturation at positions 5, 18, 19, 20;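 further: peptides expressed intracellularly from a pBAD plasmid library in pooled LB shake-flask culture, induced with 0.3% L-arabinose, DNA abundance read by NGS, three biological replicates, DESeq2 with apeglm shrinkage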
Category key, based on recorded shrunken log2 fold change: group A = under -0.05, group B = from -0.05 up to 0.2, group C = 0.2 and over

[
  {
    "Sequence code": "RRIRDRPPRLPRPRPRPTKLPRP",
    "Assayed target": "Escherichia coli TOP10",
    "Answer label": "group B"
  },
  {
    "Sequence code": "RRIRHRPPRLPRPRPRPSDCPRP",
    "Assayed target": "Escherichia coli TOP10",
    "Answer label": "group A"
  },
  {
    "Sequence code": "RRIRTRPPRLPRPRPRPSWGPRP",
    "Assayed target": "Escherichia coli TOP10",
    "Answer label": "group A"
  },
  {
    "Sequence code": "RRIRARPPRLPRPRPRPFMHPRP",
    "Assayed target": "Escherichia coli TOP10",
    "Answer label": "group C"
  },
  {
    "Sequence code": "RRIRQRPPRLPRPRPRPPSSPRP",
    "Assayed target": "Escherichia coli TOP10",
    "Answer label": "group B"
  },
  {
    "Sequence code": "RRIRGRPPRLPRPRPRPTMKPRP",
    "Assayed target": "Escherichia coli TOP10",
    "Answer label": "group C"
  },
  {
    "Sequence code": "RRIRSRPPRLPRPRPRPWMHPRP",
    "Assayed target": "Escherichia coli TOP10",
    "Answer label": "group B"
  },
  {
    "Sequence code": "RRIRYRPPRLPRPRPRPIYCPRP",
    "Assayed target": "Escherichia coli TOP10",
    "Answer label": "group A"
  },
  {
    "Sequence code": "RRIRWRPPRLPRPRPRPHHIPRP",
    "Assayed target": "Escherichia coli TOP10",
    "Answer label": "group A"
  },
  {
    "Sequence code": "RRIRERPPRLPRPRPRPAQGPRP",
    "Assayed target": "Escherichia coli TOP10",
    "Answer label": "group C"
  },
  {
    "Sequence code": "RRIRCRPPRLPRPRPRPHKAPRP",
    "Assayed target": "Escherichia coli TOP10",
    "Answer label": "group A"
  },
  {
    "Sequence code": "RRIRVRPPRLPRPRPRPDTAPRP",
    "Assayed target": "Escherichia coli TOP10",
    "Answer label": "group A"
  },
  {
    "Sequence code": "RRIRQRPPRLPRPRPRPRLHPRP",
    "Assayed target": "Escherichia coli TOP10",
    "Answer label": "group B"
  },
  {
    "Sequence code": "RRIRWRPPRLPRPRPRPIPAPRP",
    "Assayed target": "Escherichia coli TOP10",
    "Answer label": "group C"
  },
  {
    "Sequence code": "RRIRLRPPRLPRPRPRPAHRPRP",
    "Assayed target": "Escherichia coli TOP10",
    "Answer label": "group C"
  },
  {
    "Sequence code": "RRIRGRPPRLPRPRPRPSHDPRP",
    "Assayed target": "Escherichia coli TOP10",
    "Answer label": "group B"
  },
  {
    "Sequence code": "RRIRHRPPRLPRPRPRPQECPRP",
    "Assayed target": "Escherichia coli TOP10",
    "Answer label": "group B"
  },
  {
    "Sequence code": "RRIRGRPPRLPRPRPRPVCMPRP",
    "Assayed target": "Escherichia coli TOP10",
    "Answer label": "group C"
  },
  {
    "Sequence code": "RRIRSRPPRLPRPRPRPADQPRP",
    "Assayed target": "Escherichia coli TOP10",
    "Answer label": "group C"
  },
  {
    "Sequence code": "RRIRLRPPRLPRPRPRPPPQPRP",
    "Assayed target": "Escherichia coli TOP10",
    "Answer label": "group C"
  },
  {
    "Sequence code": "RRIRDRPPRLPRPRPRPNQDPRP",
    "Assayed target": "Escherichia coli TOP10",
    "Answer label": "group B"
  },
  {
    "Sequence code": "RRIRLRPPRLPRPRPRPTGQPRP",
    "Assayed target": "Escherichia coli TOP10",
    "Answer label": "group B"
  },
  {
    "Sequence code": "RRIRFRPPRLPRPRPRPRPCPRP",
    "Assayed target": "Escherichia coli TOP10",
    "Answer label": "group C"
  },
  {
    "Sequence code": "RRIRVRPPRLPRPRPRPFYMPRP",
    "Assayed target": "Escherichia coli TOP10",
    "Answer label": "group A"
  },
  {
    "Sequence code": "RRIRKRPPRLPRPRPRPWHAPRP",
    "Assayed target": "Escherichia coli TOP10",
    "Answer label": "group A"
  },
  {
    "Sequence code": "RRIRDRPPRLPRPRPRPWCIPRP",
    "Assayed target": "Escherichia coli TOP10",
    "Answer label": "group A"
  },
  {
    "Sequence code": "RRIRPRPPRLPRPRPRPSTPPRP",
    "Assayed target": "Escherichia coli TOP10",
    "Answer label": "group A"
  },
  {
    "Sequence code": "RRIRFRPPRLPRPRPRPCSEPRP",
    "Assayed target": "Escherichia coli TOP10",
    "Answer label": "group B"
  },
  {
    "Sequence code": "RRIRKRPPRLPRPRPRPSTLPRP",
    "Assayed target": "Escherichia coli TOP10",
    "Answer label": "group C"
  },
  {
    "Sequence code": "RRIRTRPPRLPRPRPRPEPIPRP",
    "Assayed target": "Escherichia coli TOP10",
    "Answer label": "group C"
  }
]
